The reported numbers originate from PubChem BioAssay (NCI).

- System: A498 renal
- ASSAY DETAILS: NCI-60 one-dose screen, 48 h (100 = growth as untreated, 0 = no growth, -100 = all killed)
- CONDITION SUMMARY: 10 µM unless noted
- Description: Growth inhibition of the A498 human tumor cell line is measured as a screen for anti-cancer activity. Cells are grown in 96 well plates and exposed to the test compound for 48 hours. Compounds are tested at a single concentration, which is 10^-5 M for most compounds. The reported endpoint is percent growth (GI% or GIPRCNT), where numbers from 0 - 100% represent growth inhibition, and numbers from -100% - 0 represent cell death. For example, a value of 40 represents 60% growth inhibition. […]
About 83,000 compounds went through this panel and 20% of them were active in at least one assay; those are over-represented in the sample as a whole.
MEASURED QUANTITY: growth (%)

CCOC(=O)CCCCCCCCC(=O)OCC ... 93.9
CC/C(=N\Nc1nc2ccccc2n1C)c1ccccn1 ... -20.7
CC(=O)CC(=O)OC/C=C(/C)CCC=C(C)C ... 117
COc1cccc(-c2cc(-c3cc4ccccc4oc3=O)nc(N)n2)c1 ... 127
C=CCSc1nnc(COc2ccc3c(C)c(Cc4ccccc4)c(=O)oc3c2C)o1 ... 110
Nc1nc2c(c3ncncc13)C(c1cccc(C(F)(F)F)c1)Cc1ncncc1-2 (stereo not drawn) ... -6.07
NNC(=O)CNc1ccc2ccccc2c1 ... 107
CC(=O)OCC1O[C@@H](OC(C)=O)[C@@H](NC(=O)NS(=O)(=O)c2ccccc2)C(OC(C)=O)[C@@H]1OC(C)=O (stereo partly drawn) ... 71.9
Cn1c2c(cc(S(=O)(=O)c3ccccc3)c1=O)CCc1c-2cnn1-c1ccc(Cl)cc1 ... -14.5
COC(=O)c1ccc2[nH]c(O)c(C(=Nc3ccc(N(C)C(=O)CN4CCN(C)CC4)cc3)c3ccc4c(c3)OCO4)c2c1 ... -19.1
CCC1(CC)C(OC)NC(Br)=C(C#N)C1(C#N)C(N)=O (stereo not drawn) ... 114
C/C=C/C/C=C/[C@H](C)C[C@H](O)[C@@H]1C[C@@H]2O[C@H]2/C=C/[C@H](O)[C@@H](O)/C=C/C[C@H](C)CC(=O)O1 ... 115
O=C(Nc1cccc(Cn2c(=O)[nH]c3ccc(Oc4ncccn4)cc3c2=O)c1)c1cccc(F)c1 ... 66
COC(=O)C(C)[C@H]1CC[C@@H]2[C@]1(C)CC=C1[C@]23C=C[C@]2(C[C@@H](OC(C)=O)CC[C@]12C)C(C(=O)OC)C3C(=O)OC (stereo partly drawn) ... 106
CCC(CCCN1C(=O)c2ccccc2C1=O)Nc1cc(OC)cc2c(C)ccnc12 (stereo not drawn) ... 60
CCCCN(CCCC)c1ccc(C(=O)O)cc1 ... 98.2
c1ccc(Nc2ccccn2)cc1 ... 122
NC(N)=Nc1ccc(/C=C2\C=Cc3ccccc32)cc1 ... 47.7
